Molecular target: T1, human ceruloplasmin (human, UniProt P00450 20-1065)
T1 construct: also called CP; purified CP
T1 sequence: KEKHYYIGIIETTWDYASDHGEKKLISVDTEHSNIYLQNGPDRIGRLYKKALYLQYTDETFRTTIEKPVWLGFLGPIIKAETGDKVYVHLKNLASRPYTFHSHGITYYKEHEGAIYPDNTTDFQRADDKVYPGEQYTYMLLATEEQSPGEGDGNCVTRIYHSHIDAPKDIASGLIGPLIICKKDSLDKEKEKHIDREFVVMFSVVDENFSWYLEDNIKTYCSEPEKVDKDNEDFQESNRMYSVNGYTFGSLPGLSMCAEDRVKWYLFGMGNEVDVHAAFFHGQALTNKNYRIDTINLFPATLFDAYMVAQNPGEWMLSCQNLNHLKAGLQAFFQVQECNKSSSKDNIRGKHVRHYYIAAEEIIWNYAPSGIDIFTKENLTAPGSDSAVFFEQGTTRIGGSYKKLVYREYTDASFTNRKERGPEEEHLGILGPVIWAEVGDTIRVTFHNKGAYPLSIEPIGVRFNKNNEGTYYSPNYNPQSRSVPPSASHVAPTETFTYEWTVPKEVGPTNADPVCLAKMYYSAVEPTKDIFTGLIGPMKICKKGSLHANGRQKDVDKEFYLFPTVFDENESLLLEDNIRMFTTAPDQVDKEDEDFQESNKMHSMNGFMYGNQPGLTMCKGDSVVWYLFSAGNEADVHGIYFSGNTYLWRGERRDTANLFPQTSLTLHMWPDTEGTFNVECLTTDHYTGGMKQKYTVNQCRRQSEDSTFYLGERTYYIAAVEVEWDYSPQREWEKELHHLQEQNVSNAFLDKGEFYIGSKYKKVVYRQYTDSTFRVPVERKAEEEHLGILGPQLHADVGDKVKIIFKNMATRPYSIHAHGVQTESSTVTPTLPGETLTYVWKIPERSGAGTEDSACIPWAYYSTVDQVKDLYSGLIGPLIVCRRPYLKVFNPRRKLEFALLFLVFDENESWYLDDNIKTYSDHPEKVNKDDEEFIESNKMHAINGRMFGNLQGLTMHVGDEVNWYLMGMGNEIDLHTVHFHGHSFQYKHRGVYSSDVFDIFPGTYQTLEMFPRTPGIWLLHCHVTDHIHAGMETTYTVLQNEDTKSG
Assay: competition ELISA on coated CP, biotinylated probe; competitor: mAb F
Description: To assess whether any of the 8 anti-CP antibodies competed with each other for binding to CP, the following ELISA study was performed. Briefly, CP was coated onto plates at 0.4 ug/mL overnight. […] Plates were then incubated with TMB substrate for either 30 minutes or 15 minutes, as noted below, and the reaction was stopped by adding 0.18 M sulfuric acid and read at A450. […]
Quantity: probe binding, % of diluent control (%)
Record the value in %, omitting the unit from your answer.

Below, 5 binders whose answers are already recorded.
INSERT INTO results (binder, unit_annotation, data_value) VALUES
  ('anti-CP mAb C (antibody, V domains shown, Recombinant full-length rabbit IgG from HEK-293; also called mAb2) VH: QSVEESGGRLVTPGTPLTLTCTASGFSLSRYYMSWVRQAPGKGLEWIGMIYPSSGSTWYASWVKGRFTISATATSVDLKITSPTTEDTATYFCVRDRYPGYNGDSFNLWGQGTLVTVSS VL: AQVLTQTASPVSAAVGSTVTINCQASQSVYNNNYLAWFQQKPGQPPKRLIYQASKLAIGVPSRFSGSGSGTQFTLTISDVQCDDAATYYCLGSYGCNSVDCNVFGGGTEVVVKG', '%', 97),
  ('anti-CP mAb B (antibody, V domains shown, Recombinant full-length rabbit IgG from HEK-293; tested as conditioned medium, Protein A-purified and biotinylated) VH: QQQLEESGGGLVKPGGTLTLTCKASGIDFSSYYYMCWVRQAPGKGLEWIACIYVIDDTIYCANWAKGRFTISKTSSTTVTLQMTSLTAADTATYFCARDGSSGIRDYFDLWGPGTLVTVSS VL: AYDMTQTPASVEVAVGGTVTIKCQASESVSTWLAWYQQKPGQPPKLLIYKASDLASGVPSRFKGSGSGTEFTLTISGVECADAATYYCQQGYTYNNVENVFGGGTEVVVKG', '%', 95),
  ('anti-CP mAb A (antibody, V domains shown, Recombinant full-length rabbit IgG from HEK-293; tested as conditioned medium, Protein A-purified and biotinylated) VH: QSLEESGGDLVKPGASLTLTCKASGFDLSRFYYMCWVRQAPGKGLEWIACIYAGRTGNTYYASWAKGRFTISKTSSTTVTLQMTSLTAADTATYFCARASGDFLAYTYAMDLWGPGTLVTVSS VL: AAVLTQTPASVSAAVGGTVTISCQASQSVDNNNYLAWYQQKPGQPPKLLIYEASKLASGVPSRFSGSGSGTQFTLTISDVQCDDATTYYCAGGYSSSADANAFGGGTEVVVKG', '%', -2),
  ('anti-CP mAb D (antibody, V domains shown, Recombinant full-length rabbit IgG from HEK-293; tested as conditioned medium, Protein A-purified and biotinylated) VH: QEQLVESGGGLVQPEGSLTLTCKASGFDFSSYWMCWVRQAPGKRPEWIACIYGGDGTSYFAGWAKGRFTISKTSSTTVTLQMTSLTAADTATYFCARADYYVYVDGGYGHAYDLWGPGTLVTVSS VL: DIVMTQTPASVEAAVGGSVTIKCQASDDIYSYLAWYQQKPGQPPKLLIFDASSLPSGVPSRFKGSGSGTQFTLTISGVQCADAATYYCQNYYGSSSSVHAFGGGTEVVVKG', '%', 100),
  ('anti-CP mAb H (antibody, V domains shown, Recombinant full-length rabbit IgG from HEK-293; tested as conditioned medium, Protein A-purified and biotinylated) VH: QSVEESGGRLVTPGTPLTLTCTVSGFSLSTYAMGWVRQAPGKGLEYIGIIYGGSGTFYASWAKGRFTISKTSTTVDLKITSPTTEDTATYFCARDGDDSYFDYFNLWGQGTLVTVSS VL: AAVLTQTPASVSAAVGGTVSISCQSNENIGSNLAWYQQKPGQPPKLLIYGASTLTSGVPSRFKGSGSGTAFTLTISGVQCDDAATYYCLGGYLSTSDTTFGGGTAVVVKG', '%', 94);

Moving on to the next binder.
Challenge: Consider the binder anti-CP mAb G (antibody, V domains shown, Recombinant full-length rabbit IgG from HEK-293; also called mAb3) VH: QSLEESGGRLVTPGTLLTLTCTVSGFSLSSNAMSWVRQAPGEGLEWIGTISSRGSTYYANWAKGRFTISKTSTTVDLKITSPTTEDTATYFCARSSLAGYEPYYFKLWGQGTLVTVSS VL: DVVMTQTASPVSAAVGGTVTIKCQASESISSYLAWYQQKPGQPPKLLIYGASDLASGVPSRFKGSGSGTEFTLTISDLECADAATYYCQSYYGLSRNGYGNVFGGGTEVVVKG . State its measured probe binding, % of diluent control.
Response given: 84

Data origin: patent US20240044920A1
